Each entry below lists one item and its recorded melting point value.

compound	value_measured
CNC(=O)CCc1cn(Cc2ccc(C(=O)O)cc2OC)c2cc(C(=O)NCC3CCCC3)ccc12	274 to 275 °C
CC1CCCN1CCCN1C(=C(C#N)C#N)N(CCCN2CCCC2C)c2ccccc21 (stereo not given)	83 to 85 °C
Cc1cc(N)c([N+](=O)[O-])cc1OC(F)F	73 to 74 °C

Query: What value of melting point has been recorded for this entry: Cc1cc(C(=O)N2Cc3cccn3Cc3ccccc32)ccc1C1=CCCCC1
Result: 173 to 175 °C

Query: Quick one: O=c1[nH]c(-c2ccc(C(F)(F)F)cc2C(F)(F)F)nn1-c1cc(Cl)ccc1O
Result: 270 to 275 °C
